Values compiled from patent US20100151508A1.

experiment: Fluorescence emission of myricetin derivatives (fluorimetry); format: physicochemical; settings: fluorescence emission; 2.5 μM in ethanol (KB861 in THF)
reported metric: λmax (nm)

response.value for CCc1ccc2c(=O)c(O)c(-c3cc(O)c(O)c(O)c3)oc2c1 (field: λmax (nm)) = 504.9

response.value for O=c1c(O)c(-c2ccc(O)c(O)c2O)oc2ccccc12 (field: λmax (nm)) = 457.1

response.value for O=c1c(O)c(-c2cc(O)c(O)c(O)c2)oc2cc(O)cc(O)c12 [Myricetin, reference compound] (field: λmax (nm)) = 499.5

response.value for CCCCCCCCCCc1ccc2c(=O)c(O)c(-c3cc(O)c(O)c(O)c3)oc2c1 (field: λmax (nm)) = 544.7

response.value for O=c1c(O)c(-c2cc(O)c(O)cc2O)oc2ccccc12 (field: λmax (nm)) = 517.0

response.value for CCCCCCCCCCc1ccc2c(=O)c(O)c(-c3cc(O)c(O)cc3O)oc2c1 (field: λmax (nm)) = 514.1

----------
experiment: Fluorescence emission of myricetin derivatives (fluorimetry); format: physicochemical; details: 2.5 μM in ethanol (KB861 in THF)
reported metric: Emission intensity

response.value for CCCCCCCCCCc1ccc2c(=O)c(O)c(-c3cc(O)c(O)c(O)c3)oc2c1 [KB861] (field: Emission intensity) = 664.669

response.value for CCCCCCCCCCc1ccc2c(=O)c(O)c(-c3cc(O)c(O)cc3O)oc2c1 [AOX166] (field: Emission intensity) = 0.286

response.value for O=c1c(O)c(-c2ccc(O)c(O)c2O)oc2ccccc12 [AOX558] (field: Emission intensity) = 0.166

I: O=c1c(O)c(-c2cc(O)c(O)cc2O)oc2ccccc12 [AOX563]
II: O=c1c(O)c(-c2cc(O)c(O)c(O)c2)oc2cc(O)cc(O)c12 [Myricetin, reference compound]
III: CCc1ccc2c(=O)c(O)c(-c3cc(O)c(O)c(O)c3)oc2c1 [KB474]
**Q:** Order each entry by recorded Emission intensity, climbing from the minimum. Answer with the labels in sequence, matching the requested order.
**A:** I, II, III
